Quick list: TGI per entry.
Test system: MDA-MB-231
assayExplanation: Growth inhibition of human MDA-MB-231/ATCC cells after 48 hrs by sulforhodamine B assay
Type: functional
protocolConditions: MDA-MB-231, 48 h, read-out: pTGI (converted)
Express your answer in µM, writing the number without its unit.

Consider the worked cases shown below.
testSmiles	TGI [µM]
COCOc1cc(/C=C/c2cc(C=O)c3c(c2)C[C@@H]2C(C)(C)[C@H](O)CC[C@@]2(C)O3)cc(OC)c1C/C=C(\C)CCC=C(C)C	15.8
COc1cc(/C=C/c2ccc3c(c2)C[C@@H]2C(C)(C)[C@H](O)CC[C@@]2(C)O3)cc(O)c1C/C=C(\C)CCC=C(C)C	30.9
COc1cc(/C=C/c2cc(O)c3c(c2)C[C@@H]2C(C)(C)[C@H](O)CC[C@@]2(C)O3)cc(O)c1C/C=C(\C)CCC=C(C)C	2.88

With those in mind, consider the next compound.
// lookup TGI for `COc1cc(/C=C/c2cc3c(c(OC)c2)O[C@]2(C)CC[C@@H](O)C(C)(C)[C@H]2C3)cc(O)c1C/C=C(\C)CCC=C(C)C` 7.76
